Hey, just so you know, these numbers are from the RNAGym collection of RNA variant scans (doi:10.1002/anie.201605470).

B1: Osa-1-4 twister ribozyme (parent)
chain: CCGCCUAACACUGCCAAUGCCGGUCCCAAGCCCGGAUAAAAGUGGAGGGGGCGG

# Variants of: B1
# assay name: self-cleavage, relative activity (ratio to wild type); higher = more cleavage; co-transcriptional
Classify by self-cleavage. Ranges: low (below 0.07), moderate (0.07 to below 0.7), high (0.7 or more)

1. A17G G44C; high
2. A40C G13C; low
3. U18C U24G; low
4. A39G A41C; moderate
5. A17G C21A; high
6. A38C G44U; high
7. A38U C9U; high
8. A16G C14A; moderate
9. C11A G54C; moderate
10. A10C G53U; low
